# ASSAYED_TARGET: mTor (Homo sapiens, UniProt P42345)
# Construct: purchased Millipore/Merck KGA
# ASSAY_NAME: In vitro kinase inhibition, mTor (Millipore/Merck kinases panel screening)
# Type: biochemical
# CONDITION_DESCRIPTION: compound at 0.03 μM; scaffold drawing 7 series
RECORDED_ENDPOINT: activity at 0.03 µM (%)

MOLECULE	REPORTED_RESULT
FC(F)(F)c1cc(-n2c3c4cc(-c5ccc(NCCN6CCCC6)nc5)ccc4ncc3n3cnnc23)ccc1Cl	15
Nc1ccc(-c2ccc3ncc4c(c3c2)n(-c2ccc(Cl)c(C(F)(F)F)c2)c2nncn42)cn1 [5-pyridin-2-amine, 4-Cl, H]	-19

[P] O=C(CN1CCOCC1)Nc1ccc(-c2ccc3ncc4c(c3c2)n(-c2cccc(C(F)(F)F)c2)c2nncn42)cn1
[Q] NCC(=O)Nc1ccc(-c2ccc3ncc4c(c3c2)n(-c2ccc(Cl)c(C(F)(F)F)c2)c2nncn42)cn1
IN: Out of P and Q , name the one with the higher activity at 0.03 µM. State your choice using its label.
OUT: P
(P: 31%, Q: 9%)

---

# Test system: pi3K
# ASSAY_NAME: In vitro kinase inhibition, pi3K (Millipore/Merck kinases panel screening)
# Format: biochemical
# CONDITION_DESCRIPTION: compound at 0.03 μM; scaffold drawing 7 series
RECORDED_ENDPOINT: pi3K % activity @0.03 μM (%)

Worked cases, answers included:
CHEMICAL_STRUCTURE	pi3K % activity @0.03 μM / %
NCC(=O)Nc1ccc(-c2ccc3ncc4c(c3c2)n(-c2ccc(Cl)c(C(F)(F)F)c2)c2nncn42)cn1	83
OCCNc1ccc(-c2ccc3ncc4c(c3c2)n(-c2ccc(Cl)c(C(F)(F)F)c2)c2nncn42)cn1	82
O=C(CN1CCOCC1)Nc1ccc(-c2ccc3ncc4c(c3c2)n(-c2cccc(C(F)(F)F)c2)c2nncn42)cn1	95
COCCNc1ccc(-c2ccc3ncc4c(c3c2)n(-c2cccc(C(F)(F)F)c2)c2nncn42)cn1	92

[P] FC(F)(F)c1cc(-n2c3c4cc(-c5ccc(NCCN6CCOCC6)nc5)ccc4ncc3n3cnnc23)ccc1Cl
[Q] Nc1ccc(-c2ccc3ncc4c(c3c2)n(-c2ccc(Cl)c(C(F)(F)F)c2)c2nncn42)cn1
IN: Out of P and Q , name the one with the higher pi3K % activity @0.03 μM. State your choice using its label.
OUT: P

---

# ASSAYED_TARGET: mTor (Homo sapiens)
# Construct: purchased Millipore/Merck KGA
# ASSAY_NAME: In vitro kinase inhibition, mTor (Millipore/Merck kinases panel screening)
# Type: biochemical
# CONDITION_DESCRIPTION: compound at 0.03 μM; scaffold drawing 7 series
RECORDED_ENDPOINT: activity at 0.03 µM (%)

[A] CN1CCN(CC(=O)Nc2ccc(-c3ccc4ncc5c(c4c3)n(-c3ccc(Cl)c(C(F)(F)F)c3)c3nncn53)cn2)CC1
[B] Fc1ccccc1-c1ccc2ncc3c(c2c1)n(-c1ccc(Cl)c(C(F)(F)F)c1)c1nncn31
IN: Out of A and B , name the one with the higher activity at 0.03 µM. State your choice using its label.
OUT: B
(B: 55%, A: -4%)

---

# Test system: pi3K
# ASSAY_NAME: In vitro kinase inhibition, pi3K (Millipore/Merck kinases panel screening)
# Assay type: biochemical
# CONDITION_DESCRIPTION: compound at 0.03 μM; scaffold drawing 7 series
RECORDED_ENDPOINT: pi3K % activity @0.03 μM (%)

CHEMICAL_STRUCTURE	ASSAYED_TARGET	pi3K % activity @0.03 μM (%)
FC(F)(F)c1cc(-n2c3c4cc(-c5cccnc5)ccc4ncc3n3cnnc23)ccc1Cl	pi3K	77
COCCNc1ccc(-c2ccc3ncc4c(c3c2)n(-c2ccc(Cl)c(C(F)(F)F)c2)c2nncn42)cn1	pi3K	87
O=C(CN1CCOCC1)Nc1ccc(-c2ccc3ncc4c(c3c2)n(-c2ccc(Cl)c(C(F)(F)F)c2)c2nncn42)cn1	pi3K	82
O=C(CN1CCCC1)Nc1ccc(-c2ccc3ncc4c(c3c2)n(-c2ccc(Cl)c(C(F)(F)F)c2)c2nncn42)cn1	pi3K	82
FC(F)(F)c1cc(-n2c3c4cc(-c5ccc(NCCN6CCCC6)nc5)ccc4ncc3n3cnnc23)ccc1Cl	pi3K	98
FC(F)(F)c1cc(-n2c3c4cc(-c5cnc6ccccc6c5)ccc4ncc3n3cnnc23)ccc1Cl	pi3K	84
FC(F)(F)c1cccc(-n2c3c4cc(-c5ccc(NCCN6CCCC6)nc5)ccc4ncc3n3cnnc23)c1	pi3K	101
FC(F)(F)c1cccc(-n2c3c4cc(-c5cnc6ccccc6c5)ccc4ncc3n3cnnc23)c1	pi3K	68
FC(F)(F)c1cccc(-n2c3c4cc(-c5cccnc5)ccc4ncc3n3cnnc23)c1	pi3K	70
CN1CCN(CC(=O)Nc2ccc(-c3ccc4ncc5c(c4c3)n(-c3ccc(Cl)c(C(F)(F)F)c3)c3nncn53)cn2)CC1	pi3K	74
CN(C)CC(=O)Nc1ccc(-c2ccc3ncc4c(c3c2)n(-c2cccc(C(F)(F)F)c2)c2nncn42)cn1	pi3K	89
